Where these numbers come from: patent US20230074252A1

assay.summary: Clinical pharmacokinetics in healthy subjects (Studies RVT-1201-1001 and KAR5585-101)
Assay type: in vivo, human
test.settings: male, human, plasma, 400 mg; after oral RVT-1201, Regimen C; read-out: Geometric mean plasma terminal t1/2 (converted)
measured.property: half-life (h)
Express the result in h but write the number alone.

stdin: Look up half-life of Nc1nc(O[C@H](c2ccc(Cl)cc2-c2ccccc2)C(F)(F)F)cc(N2CCC3(CC2)CN[C@H](C(=O)O)C3)n1 [Rodatristat] and report it.
stdout: 12.3

---

target.entity: CYP3A4/5 (Homo sapiens, UniProt P08684)
Sequence (P08684 2-503): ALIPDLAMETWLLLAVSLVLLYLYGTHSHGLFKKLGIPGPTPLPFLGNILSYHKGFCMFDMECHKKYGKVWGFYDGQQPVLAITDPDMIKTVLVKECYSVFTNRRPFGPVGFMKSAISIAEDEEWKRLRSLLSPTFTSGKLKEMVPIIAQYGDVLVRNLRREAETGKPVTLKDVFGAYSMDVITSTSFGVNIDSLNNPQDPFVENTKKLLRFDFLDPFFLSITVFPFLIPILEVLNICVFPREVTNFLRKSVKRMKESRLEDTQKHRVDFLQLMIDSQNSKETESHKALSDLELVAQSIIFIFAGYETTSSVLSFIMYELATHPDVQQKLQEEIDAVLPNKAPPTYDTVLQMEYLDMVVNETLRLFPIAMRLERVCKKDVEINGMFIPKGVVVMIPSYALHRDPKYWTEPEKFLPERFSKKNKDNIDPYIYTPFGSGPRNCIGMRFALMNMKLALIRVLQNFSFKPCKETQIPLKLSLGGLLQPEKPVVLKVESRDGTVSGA
assay.summary: Direct and time-dependent CYP inhibition, pooled human liver microsomes
Format: in vitro ADME
test.settings: human, pooled human liver microsomes; 30 μM; range given across CYPs 2B6, 2C9 and 3A4/5
measured.property: inhibition at 30 µM

stdin: Write inhibition at 30 µM of Nc1nc(O[C@H](c2ccc(Cl)cc2-c2ccccc2)C(F)(F)F)cc(N2CCC3(CC2)CN[C@H](C(=O)O)C3)n1 ; system used: CYP3A4/5 (Homo sapiens, UniProt P08684)
stdout: 27 to 45%
